# System: LXRb:RXRa (NR concentration 270 nM, RXRa partner concentration 90 nM)
# Protocol details: PBM binding z-score (relative to random genomic background probes); higher = stronger binding; sequences stand for … in GC…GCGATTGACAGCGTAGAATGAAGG
Returns one of met or not met; met when PBM binding z-score is >= 1.

Check out these entries, answers already filled in.
Problem: Could you verify whether the entry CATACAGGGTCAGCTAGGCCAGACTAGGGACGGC shows PBM binding z-score of no less than 1?
Result: met

Problem: And for AATTCAGGGTCATCGTAGGCCAGAGTACGCACAG ?
Result: met

Problem: And for TCCTGTAGATCAGCAGGTTAAGAAAGCTGGCCAA ?
Result: not met

Problem: And for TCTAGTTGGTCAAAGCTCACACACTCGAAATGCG ?
Result: not met

Problem: And for CCTACTGGGCCATTCAGAGGTCCTTGATCATATG ?
Result: not met

Problem: And for GTACCAAGGTGAATAGGTCTTTGATGAGTAGGCG ?
Result: not met

Others:
Problem: Could you verify whether the entry CGGACTGGGGCAGAAAGGTTACCATACCATCCGG shows PBM binding z-score of no less than 1?
Result: met

Problem: And for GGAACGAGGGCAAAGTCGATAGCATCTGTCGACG ?
Result: not met

Problem: And for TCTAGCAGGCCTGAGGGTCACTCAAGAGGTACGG ?
Result: met

Problem: And for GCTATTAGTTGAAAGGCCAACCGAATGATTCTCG ?
Result: not met

Problem: And for GATACAGGGACAGCTAGAGGCCAGAGTATGGAAA ?
Result: not met

Problem: And for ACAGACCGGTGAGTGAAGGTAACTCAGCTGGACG ?
Result: not met

----------
Give PBM binding z-score for every item shown.
# Tested on: PPARg:RXRa 30nM:10nM, anti-RXR (NR concentration 30 nM, RXRa partner concentration 10 nM)
# Protocol details: PBM binding z-score (relative to random genomic background probes); higher = stronger binding; sequences stand for … in GC…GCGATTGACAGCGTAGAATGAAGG
Answers are plain numbers.

Problem: What value of PBM binding z-score has been recorded for this entry: CGTCCAAGGTCAAGGTCAGCGAAAGAGACTCGAA
Result: 3.23

Look up PBM binding z-score for the entries below, preserving their order.
1. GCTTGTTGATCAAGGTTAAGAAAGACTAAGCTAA
2. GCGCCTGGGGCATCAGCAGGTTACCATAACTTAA
3. GCATATAGTTAATACAAGGTGAAAGTCCGATTGT
4. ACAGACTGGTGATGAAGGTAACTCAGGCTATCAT

Result:
1. -0.0921
2. -0.952
3. 0.496
4. -0.179

----------
# Test system: PPARg DBDmut:RXRa IVT, anti-PPARg (DBD mutation: PPARg1 K132A/R137A, NR concentration 270 nM, RXRa partner concentration 90 nM)
# Protocol details: PBM binding z-score (relative to random genomic background probes); higher = stronger binding; sequences stand for … in GC…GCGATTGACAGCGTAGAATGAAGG
Returns one of met or not met; met when PBM binding z-score is >= 0.3.

Check out these entries, answers already filled in.
Problem: Could you verify whether the entry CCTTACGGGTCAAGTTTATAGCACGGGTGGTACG shows PBM binding z-score of no less than 0.3?
Result: met

Problem: And for ATATGTAGGTTAAGTGTCATTCAGGTTGGTTCGC ?
Result: met

Problem: And for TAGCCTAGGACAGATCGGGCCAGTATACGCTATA ?
Result: not met

Problem: And for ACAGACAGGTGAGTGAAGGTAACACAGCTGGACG ?
Result: not met

Problem: And for TCTAGTTGGTCACGGAGGTCGCACACGACGGGTA ?
Result: met

# next sequence below
Problem: Could you verify whether the entry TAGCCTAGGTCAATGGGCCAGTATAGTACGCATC shows PBM binding z-score of no less than 0.3?
Result: not met

----------
# Tested on: RARb homodimer (NR concentration 270 nM)
# Protocol details: PBM binding z-score (relative to random genomic background probes); higher = stronger binding; sequences stand for … in GC…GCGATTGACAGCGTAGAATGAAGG
Give PBM binding z-score for every item shown.
One number for each entry.

Problem: What value of PBM binding z-score has been recorded for this entry: AGAATGAGGTTATACCTAGATCAGGGAAGAAAGT
Result: 0.483

Problem: And for CAAACTAGGTCAAGAGGTCAAAGCCCGCTTCCCG ?
Result: 5.64

Problem: And for ACTAGCAGTCCAAGGGTCACTCAAGATTAGTCCG ?
Result: 3.7

Problem: And for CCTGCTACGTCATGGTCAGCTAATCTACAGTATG ?
Result: -0.0724

Look up PBM binding z-score for the entries below, preserving their order.
1. GGAACGAGGGCTAAGTTGATAGCATCTGTCGACG
2. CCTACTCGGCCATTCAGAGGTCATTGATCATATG
3. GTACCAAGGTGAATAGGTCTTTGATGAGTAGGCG

Result:
[-0.586, 4.19, 1.13]

Look up PBM binding z-score for the entries below, preserving their order.
1. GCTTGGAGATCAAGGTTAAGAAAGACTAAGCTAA
2. GGAACGAGGGCAAGTTGAAAGCAGAGTTTGATGG
3. ATCTCTAGGTAACCAAGTTCATTGAATGCCGAAC
4. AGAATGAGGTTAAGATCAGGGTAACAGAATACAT
5. CCTACTGGGCCAAGGTCATTGAACAGTCAAAGCA

Result:
1. 0.301
2. 1.57
3. 2.07
4. 1.41
5. 3.4

----------
# Test system: PPARg:RXRa 90nM:30nM, anti-RXR (NR concentration 90 nM, RXRa partner concentration 30 nM)
# Protocol details: PBM binding z-score (relative to random genomic background probes); higher = stronger binding; sequences stand for … in GC…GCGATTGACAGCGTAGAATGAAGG
Observation type: PBM binding z-score
Numbers only.

Problem: What value of PBM binding z-score has been recorded for this entry: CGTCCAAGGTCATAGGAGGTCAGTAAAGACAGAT
Result: 4.8

Problem: And for TGAATGCGGTTAAAGATCAGGGAACGTGGCGTCG ?
Result: 2.98

Problem: And for AGAACGAGGGCAATGAGTTGATACCACGGGTGGC ?
Result: 0.369

Problem: And for CAAACTAGGTCAAGAGCTCAAAGTCCGCTTCCCG ?
Result: 6.56

Problem: And for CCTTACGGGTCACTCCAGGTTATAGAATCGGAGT ?
Result: 2.56

Could you now look at the following sequence, please?
Problem: What value of PBM binding z-score has been recorded for this entry: TCAGACAGGTGAAGGTAACCCAGGTACGCAGTCG
Result: 2.77

----------
Give PBM binding z-score for every item shown.
# Test system: PPARg:RXRa (NR concentration 180 nM, RXRa partner concentration 90 nM)
# Protocol details: PBM binding z-score (relative to random genomic background probes); higher = stronger binding; sequences stand for … in GC…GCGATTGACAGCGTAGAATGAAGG
One number for each entry.

Before answering, review these 8 worked examples.
Problem: What value of PBM binding z-score has been recorded for this entry: CCTGACAGGTGAGAAGGTAACTCAGCCTCGATTA
Result: 0.404

Problem: And for TCTAGTTGGTCATAGGTCACACACTCGAAATGCG ?
Result: 8.97

Problem: And for CAAACTAGGTCACGGGAAGGTCAAAGTCCGCATG ?
Result: 10.1

Problem: And for AGTCAACGTTCACTAGGTAACGTAAGATTCAGCT ?
Result: 0.874

Problem: And for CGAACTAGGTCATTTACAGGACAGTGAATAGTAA ?
Result: 6.79

Problem: And for GGAACGAGGGCTAGTTGATAGCAGAGTTTGATGG ?
Result: 0.203

Problem: And for TCATATAGGTAAATGCTAGGTGACAGTCCGATCT ?
Result: 0.994

Problem: And for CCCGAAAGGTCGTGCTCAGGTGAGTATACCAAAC ?
Result: 2.94

Look up PBM binding z-score for the entries below, preserving their order.
1. TTTCCAAGGTGAAGGTCGTTGATCCCTCTGTAGA
2. CCATACGGGTCACTCCAGGTTATAGCATCGGAGT
3. CAAACTAGGTCAACGGAAGGTCAAAGTCCGCATG
4. GCGACTGTGGCAAAGCAGGTTACCATAAGGTTGG
5. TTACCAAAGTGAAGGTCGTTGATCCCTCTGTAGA
6. GATACCGGGTCAGCTAGAGGCCAGAGTATGGAAA
7. GTACCAATGTGAATAGGTCGTTGATGAGTAGGCG
8. TCTTGTAGATGAAGCAGGTTAAGAAAGCCTGAGT

Result:
[2.68, 3.46, 9.03, 0.331, -0.21, 2.92, 0.47, -0.527]

Look up PBM binding z-score for the entries below, preserving their order.
1. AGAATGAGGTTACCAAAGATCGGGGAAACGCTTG
2. ATACCAAGGTGATCGTGAGGTCATTGATACTAAC
3. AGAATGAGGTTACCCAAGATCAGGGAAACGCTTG

Result:
1. 2.29
2. 1.7
3. 2.29

Look up PBM binding z-score for the entries below, preserving their order.
1. CCGACTGGGGCAAGATTACCATAACGCACAGCCA
2. ACTAGCAGGCCAAGTTTGGGTCACTCATACAAAG

Result:
[1.17, 0.573]
